# assayed_target: Tyrosine-protein kinase ABL1 (Homo sapiens) (UniProt P00519)
# Sequence (P00519 whole entry): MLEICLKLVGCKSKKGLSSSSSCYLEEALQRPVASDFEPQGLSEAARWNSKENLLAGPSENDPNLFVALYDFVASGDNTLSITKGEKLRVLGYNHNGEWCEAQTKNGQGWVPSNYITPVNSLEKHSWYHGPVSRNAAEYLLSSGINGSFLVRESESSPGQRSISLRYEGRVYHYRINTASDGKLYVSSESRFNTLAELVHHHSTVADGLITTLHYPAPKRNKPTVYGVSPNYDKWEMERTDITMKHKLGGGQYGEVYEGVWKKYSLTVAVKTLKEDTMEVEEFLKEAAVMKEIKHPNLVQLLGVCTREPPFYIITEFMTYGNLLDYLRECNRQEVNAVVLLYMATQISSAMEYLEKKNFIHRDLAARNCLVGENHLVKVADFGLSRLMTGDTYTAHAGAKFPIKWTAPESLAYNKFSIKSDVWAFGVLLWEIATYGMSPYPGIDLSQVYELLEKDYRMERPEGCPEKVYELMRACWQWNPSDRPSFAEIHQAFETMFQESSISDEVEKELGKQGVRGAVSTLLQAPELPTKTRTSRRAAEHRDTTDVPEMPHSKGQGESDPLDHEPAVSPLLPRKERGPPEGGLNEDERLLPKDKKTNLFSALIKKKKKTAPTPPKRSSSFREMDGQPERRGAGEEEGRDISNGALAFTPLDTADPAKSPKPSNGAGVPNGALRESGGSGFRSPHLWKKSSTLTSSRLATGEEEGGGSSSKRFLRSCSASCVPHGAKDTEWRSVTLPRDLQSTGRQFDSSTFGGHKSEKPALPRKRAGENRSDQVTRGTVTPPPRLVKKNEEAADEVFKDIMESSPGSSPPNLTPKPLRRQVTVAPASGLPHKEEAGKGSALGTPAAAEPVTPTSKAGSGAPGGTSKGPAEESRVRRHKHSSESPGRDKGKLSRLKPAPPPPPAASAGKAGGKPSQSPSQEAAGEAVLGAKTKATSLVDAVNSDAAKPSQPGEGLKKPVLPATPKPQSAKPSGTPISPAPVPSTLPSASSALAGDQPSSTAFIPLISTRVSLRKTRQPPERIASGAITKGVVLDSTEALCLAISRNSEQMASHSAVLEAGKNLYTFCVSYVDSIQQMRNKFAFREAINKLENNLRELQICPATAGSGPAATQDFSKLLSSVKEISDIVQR
# details: at 1 µM
measured_metric: inhibition (%)
Report the figure in % without appending any unit label.

Consider the following illustrative entries.
- structure_smiles: "COc1cc(C)c(N(C)C(=O)CN(C)C)cc1Nc1nc(Nc2cccc(F)c2C(N)=O)c2cc[nH]c2n1"
  assayed_target: "Tyrosine-protein kinase ABL1 (Homo sapiens) (UniProt P00519)"
  measured_metric: "inhibition"
  quantitative_result: 0.22
- structure_smiles: "NC(=O)c1cc(-c2ccc(F)cc2)cc(-c2ccncc2)c1N"
  assayed_target: "Tyrosine-protein kinase ABL1 (Homo sapiens) (UniProt P00519)"
  measured_metric: "inhibition"
  quantitative_result: 6.04
- structure_smiles: "CCc1cccc(CC)c1/C=C/c1cncc(C(=O)NC)c1"
  assayed_target: "Tyrosine-protein kinase ABL1 (Homo sapiens) (UniProt P00519)"
  measured_metric: "inhibition"
  quantitative_result: 45.9

Prompt: Could you share what inhibition was measured for Fc1ccc(-c2ncn(CCCN3CCOCC3)c2-c2ccncc2)cc1 , tested on Tyrosine-protein kinase ABL1 (Homo sapiens) (UniProt P00519)?
Response: 0.89

Prompt: Form field: inhibition recorded for NS(=O)(=O)c1ccc(N/N=C2\C(=O)Nc3ccc(-c4cnco4)cc32)cc1 with Tyrosine-protein kinase ABL1 (Homo sapiens) (UniProt P00519) (enter value)
Response: 9.41

Prompt: Lab note: need inhibition for Fc1ccc(-c2c(-c3ccncc3)nc3n2CCS3)cc1 on Tyrosine-protein kinase ABL1 (Homo sapiens) (UniProt P00519), anyone have it?
Response: 2.3

Prompt: Request - read-out inhibition | tested on Tyrosine-protein kinase ABL1 (Homo sapiens) (UniProt P00519) | molecule COc1ccc(-c2ccc3c(NC(=O)C4CC4)n[nH]c3n2)cc1
Response: 19.3

Prompt: Which measured inhibition belongs to COc1cc2ncn(-c3cc(OCCc4ccccc4)c(C(N)=O)s3)c2cc1OC , tested on Tyrosine-protein kinase ABL1 (Homo sapiens) (UniProt P00519)?
Response: 13.7

Prompt: // lookup inhibition | system=Tyrosine-protein kinase ABL1 (Homo sapiens) (UniProt P00519) | key= NC(=O)Cc1ccccc1Oc1nccc(-c2c(-c3ccc(F)cc3)ncn2C2CCNCC2)n1
Response: 5.08

Prompt: Short answer please: inhibition, Tyrosine-protein kinase ABL1 (Homo sapiens) (UniProt P00519), entry Cc1ccc(C(=O)NC2CCC2)cc1-c1ccc(C(=O)NCC2CC2)cc1
Response: 5.96

Prompt: Any idea what inhibition came out for C[C@@H](Oc1cc(-n2cnc3ccc(OC4CCN(C)CC4)cc32)sc1C(N)=O)c1ccccc1Cl on Tyrosine-protein kinase ABL1 (Homo sapiens) (UniProt P00519)?
Response: 7.3

Prompt: Form: Entry = CCC(=O)Nc1ccc(C)c(-c2ccc(C(=O)NCC3CC3)cc2)c1 | System = Tyrosine-protein kinase ABL1 (Homo sapiens) (UniProt P00519) | inhibition = ____;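 also: reported values are mean percent inhibition of ABL1 kinase activity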
Response: 2.9

Prompt: Can you look up inhibition on Tyrosine-protein kinase ABL1 (Homo sapiens) (UniProt P00519) for N#Cc1ccc(Oc2nccc(-c3c(-c4ccc(F)cc4)ncn3C3CCNCC3)n2)cc1 ?
Response: 5.42

Prompt: Value wanted: inhibition (Tyrosine-protein kinase ABL1 (Homo sapiens) (UniProt P00519)) of entry Cc1ccc(C(=O)NC(C)C)cc1-c1ccc(C(=O)NCC2CC2)cc1
Response: 1.26

Prompt: Enter reported inhibition observed with Tyrosine-protein kinase ABL1 (Homo sapiens) (UniProt P00519) for CCc1ccc(Oc2nccc(-c3c(-c4ccc(F)cc4)ncn3C3CCNCC3)n2)cc1
Response: 6.61
